Taken from patent US20090203708A1.

TEST TARGET: human serotonin 5-HT6 receptor (Homo sapiens, UniProt P50406)
Sequence (P50406 whole entry): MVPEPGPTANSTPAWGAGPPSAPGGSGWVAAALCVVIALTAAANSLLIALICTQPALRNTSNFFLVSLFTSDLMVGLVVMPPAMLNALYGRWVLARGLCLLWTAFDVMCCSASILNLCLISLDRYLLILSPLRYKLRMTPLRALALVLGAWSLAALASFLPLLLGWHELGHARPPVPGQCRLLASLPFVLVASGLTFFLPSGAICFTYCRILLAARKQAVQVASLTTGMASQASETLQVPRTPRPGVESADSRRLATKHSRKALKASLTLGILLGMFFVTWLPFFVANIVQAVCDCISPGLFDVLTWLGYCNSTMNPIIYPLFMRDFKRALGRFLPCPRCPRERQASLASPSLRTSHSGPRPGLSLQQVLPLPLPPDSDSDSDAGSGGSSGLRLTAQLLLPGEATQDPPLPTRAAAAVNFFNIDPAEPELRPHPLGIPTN
EXPERIMENT NOTES: [3H]LSD binding assay for cloned 5-HT6 receptors
Below, each entry is listed with its recorded IC50.
PARAMETER: IC50 (nM)

>>> measured_value("COC(=O)c1ccc(Cn2c(=O)c3c(N4CCN(C)CC4)cc(Cl)cc3n(Cc3ccccc3)c2=O)cc1 [Example 38]")
2.7
>>> measured_value("CN1CCN(c2cc(Cl)cc3c2c(=O)n(Cc2cccc(Cl)c2)c(=O)n3Cc2ccccc2)CC1 [Example 18]")
2.1
>>> measured_value("C[C@H](c1ccccc1)n1c(=O)c2c(N3CCN(C)CC3)cc(Cl)cc2n(Cc2ccccc2)c1=O [Example 40]")
1.6

* * *

TEST TARGET: 5-HT2c (human recombinant receptor, CHO-K1) (Homo sapiens, UniProt P28335)
Sequence (P28335 33-458): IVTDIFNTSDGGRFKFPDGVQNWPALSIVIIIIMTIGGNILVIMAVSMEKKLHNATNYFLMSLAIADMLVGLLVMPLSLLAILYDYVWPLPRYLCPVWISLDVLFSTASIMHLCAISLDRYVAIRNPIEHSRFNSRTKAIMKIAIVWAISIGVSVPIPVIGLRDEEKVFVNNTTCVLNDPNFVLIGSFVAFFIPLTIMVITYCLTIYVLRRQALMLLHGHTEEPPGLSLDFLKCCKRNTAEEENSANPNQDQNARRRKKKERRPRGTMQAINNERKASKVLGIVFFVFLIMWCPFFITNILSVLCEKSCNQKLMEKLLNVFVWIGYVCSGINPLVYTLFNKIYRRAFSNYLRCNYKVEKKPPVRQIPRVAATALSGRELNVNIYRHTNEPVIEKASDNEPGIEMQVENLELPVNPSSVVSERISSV
EXPERIMENT NOTES: Radioligand binding assay, 5-HT2c
PARAMETER: IC50 (µM)

>>> measured_value("CN1CCN(c2cc(Cl)cc3c2c(=O)n(Cc2cccc(I)c2)c(=O)n3Cc2ccccc2)CC1")
1.05
>>> measured_value("CN1CCN(c2cc(Cl)cc3c2c(=O)n(CCCc2ccccc2)c(=O)n3Cc2ccccc2)CC1")
1.42
>>> measured_value("CN1CCN(c2cc(Cl)cc3c2c(=O)n(Cc2ccccc2[N+](=O)[O-])c(=O)n3Cc2ccccc2)CC1")
0.952
>>> measured_value("O=c1c2c(N3CCNCC3)cc(Cl)cc2n(Cc2ccccc2)c(=O)n1CCCc1ccccc1")
1.1

* * *

TEST TARGET: 5-HT7 (human recombinant receptor, CHO-K1) (Homo sapiens, UniProt P34969)
Sequence (P34969 whole entry): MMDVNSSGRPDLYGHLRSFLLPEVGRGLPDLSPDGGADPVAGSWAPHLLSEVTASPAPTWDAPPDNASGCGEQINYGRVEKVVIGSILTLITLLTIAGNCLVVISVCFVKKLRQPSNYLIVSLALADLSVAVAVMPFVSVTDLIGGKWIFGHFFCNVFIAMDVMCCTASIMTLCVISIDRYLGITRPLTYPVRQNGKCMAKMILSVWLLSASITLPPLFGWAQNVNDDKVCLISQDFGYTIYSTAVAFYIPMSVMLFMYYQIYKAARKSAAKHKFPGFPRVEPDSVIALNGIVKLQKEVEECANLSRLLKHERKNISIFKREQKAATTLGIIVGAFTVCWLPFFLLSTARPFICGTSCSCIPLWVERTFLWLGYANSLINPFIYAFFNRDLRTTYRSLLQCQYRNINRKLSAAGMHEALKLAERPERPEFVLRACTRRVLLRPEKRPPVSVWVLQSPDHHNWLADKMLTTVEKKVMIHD
EXPERIMENT NOTES: Radioligand binding assay, 5-HT7
pIC50: −log10 of the molar value.
PARAMETER: pIC50

>>> measured_value("COc1ccccc1Cn1c(=O)c2c(N3CCN(C)CC3)cc(Cl)cc2n(Cc2ccccc2)c1=O")
"< 5.00"
>>> measured_value("CN1CCN(c2cc(Cl)cc3c2c(=O)n(Cc2cccc([N+](=O)[O-])c2)c(=O)n3Cc2ccccc2)CC1")
"< 5.00"
>>> measured_value("CN1CCN(c2cc(Cl)cc3c2c(=O)n(Cc2ccccc2[N+](=O)[O-])c(=O)n3Cc2ccccc2)CC1")
"< 5.00"

* * *

TEST TARGET: 5-HT1a (human recombinant receptor, CHO-K1) (Homo sapiens)
Sequence (P08908 whole entry): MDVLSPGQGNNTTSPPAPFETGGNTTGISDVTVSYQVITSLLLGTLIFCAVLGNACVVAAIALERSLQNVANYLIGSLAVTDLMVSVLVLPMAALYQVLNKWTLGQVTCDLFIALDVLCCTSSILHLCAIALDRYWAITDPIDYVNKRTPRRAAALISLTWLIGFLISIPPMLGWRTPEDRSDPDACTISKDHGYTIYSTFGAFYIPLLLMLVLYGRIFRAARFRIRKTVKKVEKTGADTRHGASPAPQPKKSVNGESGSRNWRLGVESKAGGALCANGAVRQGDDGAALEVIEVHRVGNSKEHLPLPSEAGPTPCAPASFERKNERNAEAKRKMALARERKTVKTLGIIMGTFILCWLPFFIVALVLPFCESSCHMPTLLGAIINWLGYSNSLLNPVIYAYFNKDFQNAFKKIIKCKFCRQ
EXPERIMENT NOTES: Radioligand binding assay, 5-HT1a
PARAMETER: IC50 (µM)

>>> measured_value("CCCCCCCCn1c(=O)c2c(N3CCN(C)CC3)cc(Cl)cc2n(Cc2ccccc2)c1=O")
2.16
>>> measured_value("CN1CCN(c2cc(Cl)cc3c2c(=O)n(Cc2ccccc2)c(=O)n3Cc2ccccc2)CC1")
4.59
>>> measured_value("CN1CCN(c2cc(Cl)cc3c2c(=O)n(Cc2ccccc2Br)c(=O)n3Cc2ccccc2)CC1")
1.08
>>> measured_value("CN1CCN(c2cc(Br)cc3c2c(=O)n(Cc2ccccc2Cl)c(=O)n3Cc2ccccc2)CC1")
2.72
>>> measured_value("C[C@@H](c1ccccc1)n1c(=O)c2c(N3CCNCC3)cc(Cl)cc2n(Cc2ccccc2)c1=O")
5.87
>>> measured_value("O=c1c2c(N3CCNCC3)cc(Cl)cc2n(Cc2ccccc2)c(=O)n1Cc1ccccc1Cl")
2.16
>>> measured_value("CN1CCN(c2cc(Cl)cc3c2c(=O)n(Cc2cccc(Cl)c2)c(=O)n3Cc2ccccc2)CC1")
1.78
>>> measured_value("O=c1c2c(N3CCNCC3)cc(Cl)cc2n(Cc2ccccc2)c(=O)n1CCCc1ccccc1")
0.891
>>> measured_value("O=c1c2c(N3CCNCC3)cc(Cl)cc2n(Cc2ccccc2)c(=O)n1CCc1ccccc1")
2.91
>>> measured_value("CN1CCN(c2cc(Cl)cc3c2c(=O)n(Cc2cccc(I)c2)c(=O)n3Cc2ccccc2)CC1")
3.53
>>> measured_value("Cc1ccc(Cn2c(=O)c3c(N4CCN(C)CC4)cc(Cl)cc3n(Cc3ccccc3)c2=O)cc1")
3.21
>>> measured_value("Cc1cc(C)cc(CCCn2c(=O)c3c(N4CCN(C)CC4)cc(Cl)cc3n(Cc3ccccc3)c2=O)c1")
2.78
>>> measured_value("CN1CCN(c2cc(Cl)cc3c2c(=O)n(Cc2ccc(F)cc2)c(=O)n3Cc2ccccc2)CC1")
2.77
>>> measured_value("CN1CCN(c2cc(Cl)cc3c2c(=O)n(Cc2cccc(F)c2)c(=O)n3Cc2ccccc2)CC1")
0.718
>>> measured_value("Cc1ccc(Cn2c(=O)c3c(N4CCN(C)CC4)cc(Cl)cc3n(Cc3ccccc3)c2=O)o1")
1.14
>>> measured_value("CN1CCN(c2cc(Br)cc3c2c(=O)n(Cc2ccccc2)c(=O)n3Cc2ccccc2)CC1")
5.01
>>> measured_value("CN1CCN(c2cc(Cl)cc3c2c(=O)n(Cc2ccccc2F)c(=O)n3Cc2ccccc2)CC1")
1.51
>>> measured_value("Cc1ccccc1Cn1c(=O)c2c(N3CCN(C)CC3)cc(Cl)cc2n(Cc2ccccc2)c1=O")
5.78
>>> measured_value("CN1CCN(c2cc(Cl)cc3c2c(=O)n(Cc2cccc([N+](=O)[O-])c2)c(=O)n3Cc2ccccc2)CC1")
3.8
>>> measured_value("CN1CCN(c2cc(Cl)cc3c2c(=O)n(Cc2ccccc2[N+](=O)[O-])c(=O)n3Cc2ccccc2)CC1")
2.24
>>> measured_value("CN1CCN(c2cc(Cl)cc3c2c(=O)n(Cc2ccc(Cl)cc2)c(=O)n3Cc2ccccc2)CC1")
3.06
